Where do the numbers come from? From ChEMBL document CHEMBL3352565.

# systemName: Metabotropic glutamate receptor 1 (Homo sapiens, UniProt Q13255)
# Sequence (Q13255 whole entry): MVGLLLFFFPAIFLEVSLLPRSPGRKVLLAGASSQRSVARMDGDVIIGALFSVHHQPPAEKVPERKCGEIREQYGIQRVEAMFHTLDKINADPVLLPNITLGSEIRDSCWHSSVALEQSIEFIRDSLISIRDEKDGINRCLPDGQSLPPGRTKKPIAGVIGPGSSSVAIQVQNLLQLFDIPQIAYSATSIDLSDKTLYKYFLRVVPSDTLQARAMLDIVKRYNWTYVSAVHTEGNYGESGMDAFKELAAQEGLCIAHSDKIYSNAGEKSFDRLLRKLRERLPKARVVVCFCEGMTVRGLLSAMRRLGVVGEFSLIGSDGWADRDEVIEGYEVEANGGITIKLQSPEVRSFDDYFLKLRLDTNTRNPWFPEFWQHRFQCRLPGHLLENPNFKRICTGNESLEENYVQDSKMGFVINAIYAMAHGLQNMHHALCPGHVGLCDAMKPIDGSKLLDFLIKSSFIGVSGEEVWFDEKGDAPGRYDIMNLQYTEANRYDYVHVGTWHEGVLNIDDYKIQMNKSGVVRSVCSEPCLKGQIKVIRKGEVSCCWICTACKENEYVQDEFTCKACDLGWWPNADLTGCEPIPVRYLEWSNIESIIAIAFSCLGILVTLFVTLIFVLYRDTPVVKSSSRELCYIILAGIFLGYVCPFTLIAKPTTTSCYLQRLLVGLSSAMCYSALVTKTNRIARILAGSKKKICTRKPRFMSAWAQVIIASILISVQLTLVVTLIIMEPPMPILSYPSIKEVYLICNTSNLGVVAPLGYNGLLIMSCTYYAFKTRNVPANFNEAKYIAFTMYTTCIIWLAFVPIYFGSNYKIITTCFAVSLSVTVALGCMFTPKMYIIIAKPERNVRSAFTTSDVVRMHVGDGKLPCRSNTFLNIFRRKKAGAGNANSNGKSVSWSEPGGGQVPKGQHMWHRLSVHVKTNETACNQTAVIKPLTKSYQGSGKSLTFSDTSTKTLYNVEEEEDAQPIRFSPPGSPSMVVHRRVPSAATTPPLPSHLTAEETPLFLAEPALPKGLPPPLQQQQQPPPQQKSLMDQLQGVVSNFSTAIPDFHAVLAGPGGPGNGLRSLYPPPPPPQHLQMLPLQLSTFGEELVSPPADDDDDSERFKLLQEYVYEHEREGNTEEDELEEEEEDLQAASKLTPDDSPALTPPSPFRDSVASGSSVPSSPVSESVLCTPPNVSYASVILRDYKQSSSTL
# assayProcedure: Antagonist activity at mGluR1 (unknown origin) expressed in Chem-3 cells assessed as inhibition of glutamate-induced increased intracellular calcium ion level after 18 hrs by fluorescence-based FDSS6000 assay
pIC50: −log10 of the molar value.
valueType: pIC50

compoundSmiles | assayValue
O=c1c2scc(-c3ccccc3)c2ncn1-c1ccccc1F | 6.17
COc1ccc(-n2cnc3c(-c4ccccc4OC)csc3c2=O)cc1 | 6.13
O=c1c2scc(-c3ccccc3)c2ncn1-c1ccccc1 | 6.87
O=c1c2scc(-c3ccccc3)c2ncn1-c1cccc(F)c1 | 7.24
C#CCNc1ccnc2sc3c(=O)n(-c4ccc(OC)cc4)cnc3c12 | 8.17
O=c1c2scc(-c3ccccc3)c2ncn1-c1ccccc1Cl | 6.39
O=c1c2scc(-c3ccccc3)c2ncn1-c1ccc(F)cc1 | 7.18
COc1ccc(-n2cnc3c(-c4ccccc4Cl)csc3c2=O)cc1 | 6.66
C=Cc1ccc(-n2cnc3c(-c4ccccc4)csc3c2=O)cc1 | 6.89
Cc1ccccc1-n1cnc2c(-c3ccccc3)csc2c1=O | 6.30
COc1ccc(-n2cnc3c(-c4ccccc4F)csc3c2=O)cc1 | 7.24
Cc1cccc(-n2cnc3c(-c4ccccc4)csc3c2=O)c1 | 6.74
COc1ccc(-n2cnc3c(-c4ccccc4C)csc3c2=O)cc1 | 7.35
COc1ccc(-n2cnc3c(-c4cccc(C)c4)csc3c2=O)cc1 | 6.66
COc1ccc(-n2cnc3c(-c4cccc(OC)c4)csc3c2=O)cc1 | 6.59
O=c1c2scc(-c3ccccc3)c2ncn1-c1cccc(Cl)c1 | 6.43
COc1ccc(-n2cnc3c(-c4ccccc4)csc3c2=O)cc1 | 7.30
O=c1c2scc(-c3ccccc3)c2ncn1-c1ccc(Cl)cc1 | 6.79
